# Test system: MDCK
# Test Details: Cytotoxicity against MDCK cells assessed as cell viability after 72 hrs
# Type: cell-based, Canis lupus familiaris
# Condition Label: dog
Measured Parameter: IC

[[record]]
compound = "CCC(CC)O[C@@H]1C=C(C(=O)O)C[C@H](N)[C@H]1NC(C)=O [OSELTAMIVIR CARBOXYLATE]"
reported_result = "<= 200 ug ml-1"

[[record]]
compound = "CCC(CC)O[C@@H]1C=C(C(=O)O)C[C@H](NC(=N)N)[C@H]1NC(C)=O"
reported_result = "0.55 mM"

[[record]]
compound = "CCC(CC)O[C@@H]1C=C(C(=O)O)C[C@H](NC(C)=N)[C@H]1NC(C)=O"
reported_result = "0.53 mM"

[[record]]
compound = "CC(=O)N[C@H]1[C@H]([C@H](O)[C@H](O)CO)OC(C(=O)O)=C[C@@H]1N=C(N)N [ZANAMIVIR]"
reported_result = "<= 200 ug ml-1"


====

# Test Details: Plasma protein binding in human at 10 to 50 uM after 10 mins by HPLC analysis
# Format: ADME, cell-free
# Condition Label: read-out: PPB (converted)
The compounds listed here are annotated with their fraction unbound at 10 min, up to 50 µM.
Please give the numeric answer without any surrounding text.

[[record]]
smiles_structure = "CCC(CC)O[C@@H]1C=C(C(=O)O)C[C@H](NC(C)=N)[C@H]1NC(C)=O"
reported_result = 0.963


Reported fraction unbound at 10 min, up to 50 µM for `CCC(CC)O[C@@H]1C=C(C(=O)O)C[C@H](NC(=N)N)[C@H]1NC(C)=O` was 0.914

====

# System Under Test: albumin (Homo sapiens)
# Sequence (P02768 whole entry): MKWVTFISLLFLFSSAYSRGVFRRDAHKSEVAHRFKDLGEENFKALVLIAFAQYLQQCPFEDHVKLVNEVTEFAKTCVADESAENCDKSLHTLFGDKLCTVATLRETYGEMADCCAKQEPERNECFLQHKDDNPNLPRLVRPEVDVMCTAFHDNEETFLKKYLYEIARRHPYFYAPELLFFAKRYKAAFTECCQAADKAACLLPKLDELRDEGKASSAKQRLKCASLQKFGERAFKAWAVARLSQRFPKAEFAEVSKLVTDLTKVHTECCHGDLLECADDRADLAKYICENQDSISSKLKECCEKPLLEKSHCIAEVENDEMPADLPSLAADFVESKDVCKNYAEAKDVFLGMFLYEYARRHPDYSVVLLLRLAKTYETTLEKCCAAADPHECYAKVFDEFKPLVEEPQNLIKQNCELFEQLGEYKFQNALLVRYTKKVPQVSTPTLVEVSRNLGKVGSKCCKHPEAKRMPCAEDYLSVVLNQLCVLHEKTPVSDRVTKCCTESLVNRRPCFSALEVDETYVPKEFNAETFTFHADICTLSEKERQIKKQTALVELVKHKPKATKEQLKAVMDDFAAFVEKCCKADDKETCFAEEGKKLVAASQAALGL
# Test Details: Binding affinity to albumin (unknown origin) at 10 to 50 uM after 10 mins by HPLC analysis
# Type: ADME
# Condition Label: read-out: PPB (converted)
# fraction unbound at 10 min, up to 50 µM per record follows
Just the number, please.

Some molecules with known fraction unbound at 10 min, up to 50 µM results, for comparison:
[[record]]
smiles_structure = "CCC(CC)O[C@@H]1C=C(C(=O)O)C[C@H](NC(C)=N)[C@H]1NC(C)=O"
reported_result = 0.978

[[record]]
smiles_structure = "Br.CCOC(=O)C1=C[C@@H](OC(CC)CC)[C@H](NC(C)=O)[C@@H](NC(C)=N)C1"
reported_result = 0.652


Consider now this further molecule.
Reported fraction unbound at 10 min, up to 50 µM (albumin (Homo sapiens)) for entry `CCOC(=O)C1=C[C@@H](OC(CC)CC)[C@H](NC(C)=O)[C@@H](NC(N)=NO)C1` is 0.625

====

# Test Details: in vivo
# Condition Label: Sprague-Dawley, rat, po, 10 mg/kg
Measured bioavailability values are reported for all entries that follow.
Please give the number followed by its unit.

bioavailability reading for CCOC(=O)C1=C[C@@H](OC(CC)CC)[C@H](NC(C)=O)[C@@H](N)C1 [OSELTAMIVIR] : 36%

So, `CCOC(=O)C1=C[C@@H](OC(CC)CC)[C@H](NC(C)=O)[C@@H](NC(=N)N)C1` ? Its bioavailability was 2.1%

====

# Test Details: Mean residence time in Sprague-Dawley rat at 10 mg/kg, iv by LC-MS/MS analysis
# Format: ADME, organism-based
# Design: dose 10 mg/kg, route intravenous
# Condition Label: in vivo
Measured Parameter: MRT (min)
The answer is to be given in min; state only the numeric part.

[[record]]
smiles_structure = "CCC(CC)O[C@@H]1C=C(C(=O)O)C[C@H](NC(=N)N)[C@H]1NC(C)=O"
measured_parameter = "MRT"
unit_info = "min"
reported_result = 59


// switching to the query molecule
The recorded MRT for entry `CCC(CC)O[C@@H]1C=C(C(=O)O)C[C@H](NC(C)=N)[C@H]1NC(C)=O` equals 32

====

# Test Details: Mean residence time in Sprague-Dawley rat at 50 mg/kg, po by LC-MS/MS analysis
# Format: ADME, organism-based
# Set-up: dose 50 mg/kg, route oral
# Condition Label: in vivo
API: label(entry) gives Satisfied if the entry's MRT is strictly smaller than 3 h; on equality or larger values it gives Not satisfied.

API: query returns whether the compound falls strictly under 3 h in MRT. Query: `CCOC(=O)C1=C[C@@H](OC(CC)CC)[C@H](NC(C)=O)[C@@H](N/C(C)=N/O)C1`
Not satisfied

# TODO verify MRT < 3 h strictly for this compound: `CCC(CC)O[C@@H]1C=C(C(=O)O)C[C@H](NC(=N)N)[C@H]1NC(C)=O`
Satisfied

Take the compound `Br.CCOC(=O)C1=C[C@@H](OC(CC)CC)[C@H](NC(C)=O)[C@@H](NC(C)=N)C1` and say whether its MRT is less than 3 h.
Satisfied

Say whether its MRT is strictly beneath 3 h. Entry: `CCOC(=O)C1=C[C@@H](OC(CC)CC)[C@H](NC(C)=O)[C@@H](NC(=N)N)C1`
Satisfied

Is the reported MRT for `CCC(CC)O[C@@H]1C=C(C(=O)O)C[C@H](NC(C)=N)[C@H]1NC(C)=O` strictly below 3 h?
Satisfied

Regarding `CCOC(=O)C1=C[C@@H](OC(CC)CC)[C@H](NC(C)=O)[C@@H](NC(N)=NO)C1` , kindly confirm whether its MRT is beneath 3 h.
Satisfied

====

# Test Details: AUC in Sprague-Dawley rat at 10 mg/kg, iv by LC-MS/MS analysis
# Format: ADME, organism-based
# Set-up: dose 10 mg/kg, route intravenous
# Condition Label: plasma
Measured Parameter: AUC (µg·h/mL)
Answer in µg·h/mL, number only, no unit symbol.

// `CCC(CC)O[C@@H]1C=C(C(=O)O)C[C@H](NC(=N)N)[C@H]1NC(C)=O` : AUC value = 4.8

====

# System Under Test: Neuraminidase (Influenza A virus, UniProt B4URF0)
# Sequence (B4URF0 whole entry): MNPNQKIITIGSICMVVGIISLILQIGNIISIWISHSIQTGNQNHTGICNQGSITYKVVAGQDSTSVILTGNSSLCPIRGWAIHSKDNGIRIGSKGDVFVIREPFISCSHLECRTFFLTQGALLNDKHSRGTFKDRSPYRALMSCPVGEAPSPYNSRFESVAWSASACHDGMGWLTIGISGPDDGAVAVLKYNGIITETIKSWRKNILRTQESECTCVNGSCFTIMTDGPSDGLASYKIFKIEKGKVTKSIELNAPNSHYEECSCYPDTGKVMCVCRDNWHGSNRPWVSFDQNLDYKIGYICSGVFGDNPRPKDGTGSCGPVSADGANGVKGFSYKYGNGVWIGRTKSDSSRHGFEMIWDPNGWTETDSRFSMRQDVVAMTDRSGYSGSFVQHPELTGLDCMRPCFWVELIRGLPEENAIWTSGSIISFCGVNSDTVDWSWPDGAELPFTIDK
# Parameters: species or system A/HH/1580/09(H1N1)
Measured Parameter: pIC50
Please treat pIC50 as minus the base-10 logarithm of the molar concentration.

Noted pIC50 for `CCC(CC)O[C@@H]1C=C(C(=O)O)C[C@H](NC(C)=N)[C@H]1NC(C)=O` , tested on Neuraminidase (Influenza A virus, UniProt B4URF0): 9.52

====

# Test Details: Cmax in Sprague-Dawley rat at 50 mg/kg, po by LC-MS/MS analysis
# Assay type: ADME, organism-based
# Design: dose 50 mg/kg, route oral
# Condition Label: in vivo
Rule: Cmax below 200 ng/mL gives YES. Equal to or above 200 ng/mL gives NO.

Would you please look over these solved cases?
[[record]]
smiles_structure = "CCOC(=O)C1=C[C@@H](OC(CC)CC)[C@H](NC(C)=O)[C@@H](N/C(C)=N/O)C1"
class_name = "NO"

[[record]]
smiles_structure = "CCOC(=O)C1=C[C@@H](OC(CC)CC)[C@H](NC(C)=O)[C@@H](NC(N)=NO)C1"
class_name = "YES"

[[record]]
smiles_structure = "CCOC(=O)C1=C[C@@H](OC(CC)CC)[C@H](NC(C)=O)[C@@H](NC(=N)N)C1"
class_name = "YES"

[[record]]
smiles_structure = "CCC(CC)O[C@@H]1C=C(C(=O)O)C[C@H](NC(=N)N)[C@H]1NC(C)=O"
class_name = "NO"


# next molecule below
Answer whether the molecule `CCC(CC)O[C@@H]1C=C(C(=O)O)C[C@H](NC(C)=N)[C@H]1NC(C)=O` has Cmax strictly less than 200 ng/mL
NO

====

Drug metabolism: recorded values
# Tested on: Liver
# Test Details: Prodrug activation in 9000g human liver supernatant assessed as formation of oseltamivir carboxylate per mg protein at 500 uM after 30 mins by HPLC analysis
# Type: tissue-based
# Condition Label: 0.5 h
Write the value in nmol/min/mg as a bare number.

Answered cases to consult:
[[record]]
smiles_structure = "Br.CCOC(=O)C1=C[C@@H](OC(CC)CC)[C@H](NC(C)=O)[C@@H](NC(C)=N)C1"
reported_result = 0.2

[[record]]
smiles_structure = "CCOC(=O)C1=C[C@@H](OC(CC)CC)[C@H](NC(C)=O)[C@@H](NC(=N)N)C1"
reported_result = 0.32

[[record]]
smiles_structure = "CCOC(=O)C1=C[C@@H](OC(CC)CC)[C@H](NC(C)=O)[C@@H](N/C(C)=N/O)C1"
reported_result = 0.56


Please examine the following record next.
Value of measured Drug metabolism for the entry `CCOC(=O)C1=C[C@@H](OC(CC)CC)[C@H](NC(C)=O)[C@@H](NC(N)=NO)C1` : 0.76

====

# System Under Test: Neuraminidase (Influenza A virus, UniProt B4URF0)
# Design: species or system A/Jena/5555/09(H1N1)
Measured Parameter: IC50
Give the number first and the unit second.

Sure, the documented IC50 for `CCC(CC)O[C@@H]1C=C(C(=O)O)C[C@H](NC(C)=N)[C@H]1NC(C)=O` is 0.44 nM

src = ChEMBL document CHEMBL3120142
